ROCK1 (Homo sapiens) IC50 data
Sequence (Q13464 whole entry): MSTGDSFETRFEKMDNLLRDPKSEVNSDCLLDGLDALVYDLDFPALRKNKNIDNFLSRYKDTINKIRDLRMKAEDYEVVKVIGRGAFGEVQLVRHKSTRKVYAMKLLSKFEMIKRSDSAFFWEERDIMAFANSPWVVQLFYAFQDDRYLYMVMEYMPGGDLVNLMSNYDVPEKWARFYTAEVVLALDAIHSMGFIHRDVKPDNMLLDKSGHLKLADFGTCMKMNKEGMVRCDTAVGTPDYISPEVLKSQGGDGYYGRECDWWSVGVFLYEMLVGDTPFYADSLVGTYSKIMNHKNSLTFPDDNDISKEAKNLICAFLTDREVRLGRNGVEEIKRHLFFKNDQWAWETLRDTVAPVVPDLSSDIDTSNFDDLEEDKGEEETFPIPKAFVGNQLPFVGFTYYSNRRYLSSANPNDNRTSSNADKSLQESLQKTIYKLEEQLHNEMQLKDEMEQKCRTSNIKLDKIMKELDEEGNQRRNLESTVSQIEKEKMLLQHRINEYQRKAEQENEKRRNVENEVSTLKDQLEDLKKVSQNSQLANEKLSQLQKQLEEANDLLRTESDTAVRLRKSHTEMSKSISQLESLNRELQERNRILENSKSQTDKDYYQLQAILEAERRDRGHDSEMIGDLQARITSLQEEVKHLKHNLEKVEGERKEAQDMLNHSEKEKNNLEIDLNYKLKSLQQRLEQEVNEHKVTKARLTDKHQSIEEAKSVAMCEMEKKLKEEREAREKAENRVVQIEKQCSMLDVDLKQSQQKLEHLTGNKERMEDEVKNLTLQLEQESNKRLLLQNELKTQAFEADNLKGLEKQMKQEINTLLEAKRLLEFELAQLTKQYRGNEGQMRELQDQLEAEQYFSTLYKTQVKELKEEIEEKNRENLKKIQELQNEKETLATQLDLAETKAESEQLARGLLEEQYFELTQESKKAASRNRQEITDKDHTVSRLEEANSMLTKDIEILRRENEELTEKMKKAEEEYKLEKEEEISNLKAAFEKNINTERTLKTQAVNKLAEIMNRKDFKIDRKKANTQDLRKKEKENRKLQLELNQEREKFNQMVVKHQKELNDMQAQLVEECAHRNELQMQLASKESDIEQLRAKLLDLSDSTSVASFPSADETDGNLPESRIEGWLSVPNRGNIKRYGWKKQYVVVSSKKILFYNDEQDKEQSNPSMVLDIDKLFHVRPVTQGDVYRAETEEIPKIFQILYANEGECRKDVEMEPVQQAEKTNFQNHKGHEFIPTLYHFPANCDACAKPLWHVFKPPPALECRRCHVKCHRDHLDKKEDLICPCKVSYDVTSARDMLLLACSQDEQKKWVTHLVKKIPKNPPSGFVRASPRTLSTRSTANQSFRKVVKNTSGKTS

Solved cases (6 shown):
CCn1nc(-c2ccc(-c3ncc(C)cc3C)c(C)c2)nc1Nc1cc2c(cc1C)C(=O)NC2C (stereo not shown)	> 10 µM
CCn1nc(-c2ccc(-c3ccn(CC(F)(F)F)c3)c(C)c2)nc1Nc1cc2c(cc1C)C(=O)NC2C (stereo not shown)	0.3 to 3 µM
CCn1nc(-c2ccc(-c3cnn(CC(F)(F)F)c3)cc2C)nc1Nc1cc2c(cc1C)C(=O)NC2C (stereo not shown)	0.3 to 3 µM
Cn1nc(-c2ccc(-c3ccnc(C(F)(F)F)c3)cc2)nc1Nc1ccc2c(c1)CNC2=O	3 to 10 µM
Cc1cn(-c2ccc(-c3nc(Nc4ccc5c(c4)CNC5=O)n(C)n3)cc2)cn1	> 10 µM
CCn1nc(-c2ccc(-c3ccc(C4CC4)nc3)cc2)nc1Nc1ccc2c(c1)C1(CC1)NC2=O	> 10 µM

[in] Report IC50 for CCn1nc(-c2ccc(-n3cnc(C4CC4)c3)c(F)c2)nc1Nc1cc2c(cc1C)C(=O)NC2C (stereo not shown) tested on ROCK1 (Homo sapiens).
[out] 3 to 10 µM

[in] Report IC50 for CCn1nc(-c2ccc(-n3cnc(C4CC4)c3)cc2)nc1Nc1ccc2c(c1)C(C)NC2=O (stereo not shown) tested on ROCK1 (Homo sapiens).
[out] 3 to 10 µM

[in] Report IC50 for CCn1nc(-c2ccc(C3CCNCC3)c(C)c2)nc1Nc1cc2c(cc1C)C(=O)NC2C (stereo not shown) tested on ROCK1 (Homo sapiens).
[out] > 10 µM

[in] Report IC50 for CCn1nc(-c2ccc(-c3ccc(C4CC4)cn3)c(C)c2)nc1Nc1cc2c(cc1C)C(=O)NC2C (stereo not shown) tested on ROCK1 (Homo sapiens).
[out] 3 to 10 µM

[in] Report IC50 for CCn1nc(-c2ccc(-n3cnc(C4CC4)c3)cc2C)nc1Nc1cc2c(cc1C)C(=O)NC2C (stereo not shown) tested on ROCK1 (Homo sapiens).
[out] 3 to 10 µM

[in] Report IC50 for CCn1nc(-c2ccc(C3=CCN(C)CC3)cc2)nc1Nc1cc2c(cc1C)C(=O)NC2C (stereo not shown) tested on ROCK1 (Homo sapiens).
[out] > 10 µM

[in] Report IC50 for CCn1nc(-c2cc(C)c(-c3ccc(C4CC4)nc3)cc2C)nc1Nc1ccc2c(c1)C(C)NC2=O (stereo not shown) tested on ROCK1 (Homo sapiens).
[out] > 10 µM

[in] Report IC50 for CCn1nc(-c2ccc(-c3cnc(C4CC4)n3C)cc2)nc1Nc1ccc2c(c1)CNC2=O tested on ROCK1 (Homo sapiens).
[out] 3 to 10 µM

[in] Report IC50 for Cn1nc(-c2ccc(-n3cnc(C4CC4)c3)cc2)nc1Nc1ccc2c(c1)C(C)(C)NC2=O tested on ROCK1 (Homo sapiens).
[out] > 10 µM
